Ref: patent US8952024B2

tested on: ducksalad (Heteranthera limosa); assay: Test B flooded paddy test; assay type: in vivo; conditions: Flood (flooded paddy test), 125 g ai/ha; scale 0 to 100, 0 is no effect, 100 is complete control; 13 to 15 days
property: Plant response rating, Ducksalad
Reply: number alone, nothing else.

Q: For the molecule shown here, O=C1CCCC(O)=C1C(=O)c1cnc(-c2ccccc2Cl)n(-c2ccccc2)c1=O , give the reported Plant response rating, Ducksalad.
Result: 0

###

system: galium (catchweed bedstraw, Galium aparine); test: Test B pre-/postemergence plant response; format: in vivo; settings: Preemergence, 31 g ai/ha; scale 0 to 100 (0 no effect, 100 complete control)
property: Plant response rating, Galium

Worked examples follow.
                                   molecule  recorded_result
0  O=C1CCCC(O)=C1C(=O)c1cnc(-c2ccccc2)n(-c2ccccc2F)c1=O                0
1  CCCCc1ncc(C(=O)C2=C(O)CCCC2=O)c(=O)n1-c1ccc(C)cc1                0
2  CCCCc1ncc(C(=O)C2=C(O)CCCC2=O)c(=O)n1-c1ccccc1                0
3  O=C1CCCC(O)=C1C(=O)c1cnc(-c2ccsc2)n(-c2ccccc2)c1=O                0
4  CCCCc1ncc(C(=O)C2=C(O)CCCC2=O)c(=O)n1-c1cccc(C)c1                0

For the next question, use this compound.
Q: Quick one: Plant response rating, Galium for CCCn1c(-c2cccs2)ncc(C(=O)C2=C(O)CCCC2=O)c1=O ?
Result: 0

###

system: barnyardgrass (Echinochloa crus-galli); assay: Test A pre-/postemergence plant response; format: in vivo; details: Preemergence, 125 g ai/ha; 0 to 100 scale, 0 = no effect, 100 = complete control
Below, each of the compounds is paired with its reported Plant response rating, Barnyardgrass value.
Just the number, please, no unit attached.

Solved entries:
In [3]: df
Out[3]:
                                   compound  recorded_result
0  COCCn1c(-c2cccc(Cl)c2)ncc(C(=O)C2=C(O)CCCC2=O)c1=O               70
1  Cc1cccc(-c2ncc(C(=O)C3=C(O)CCCC3=O)c(=O)n2-c2ccccc2C)c1               10
2  O=C1CCCC(O)=C1C(=O)c1cnc(-c2cccc(F)c2)n(-c2ccccc2)c1=O               20
3  O=C1CCCC(O)=C1C(=O)c1cnc(-c2ccc(Cl)s2)n(-c2ccccc2)c1=O                0
4  O=C(C1=C(O)C2CCC(C2)C1=O)c1cnc(-c2ccsc2)n(CC2CCCO2)c1=O (centres unmarked)                0

Alright, here's another compound for you.
Q: // query Plant response rating, Barnyardgrass value for entry Cc1ccc(Cl)cc1-n1c(-c2cccc(Br)c2)ncc(C(=O)C2=C(O)CCCC2=O)c1=O
Result: 0

###

test system: sandbur (southern sandbur, Cenchrus echinatus); experiment: Test D pre-/postemergence plant response; type: in vivo; conditions: Postemergence, 125 g ai/ha; scale 0 to 100 (0 no effect, 100 complete control)
Listing of entries alongside the reported Plant response rating, Sandbur.
Lab note: jot the number down without any unit.

Q: Requested read-out Plant response rating, Sandbur, target or system sandbur (southern sandbur, Cenchrus echinatus), entry COCCCn1c(-c2cccc(F)c2)ncc(C(=O)C2=C(O)C3CCC(C3)C2=O)c1=O (stereo not shown) [Compound 238]
Result: 75

Q: Fill in the recorded Plant response rating, Sandbur for this compound, with sandbur (southern sandbur, Cenchrus echinatus) as test system: COCCn1c(-c2cccc(C)c2)ncc(C(=O)C2=C(O)C3CCC(C3)C2=O)c1=O (stereo not shown) [Compound 233]
Result: 75

Q: Form entry - test system: sandbur (southern sandbur, Cenchrus echinatus); read-out: Plant response rating, Sandbur; compound: CCCCn1c(-c2cc(F)cc(F)c2)ncc(C(=O)C2=C(O)C3CCC(C3)C2=O)c1=O (stereo not shown) [Compound 245]
Result: 75

Q: Return Plant response rating, Sandbur measured with sandbur (southern sandbur, Cenchrus echinatus) given this compound: COCCn1c(-c2cc(F)cc(F)c2)ncc(C(=O)C2=C(O)C3CCC(C3)C2=O)c1=O (stereo not shown) [Compound 243]
Result: 75
